// data source = patent US6737383B1

test system: wheat; assay: Test B pre/postemergence wheat; type: in vivo, Triticum aestivum; details: Postemergence, Rate 125 g/ha; scale of 0 to 10 where 0 is no effect and 10 is complete control
Task for the reader: assign each of the following compounds its reported Wheat plant response rating.
// return a plain number; no unit text

## Input Form field: reported Wheat plant response rating of CCOC(=O)Cn1c(=O)on(C(=O)N(c2ccc(F)cc2)C(C)C)c1=O [Compound 128]
## Output 0

## Input Form field: reported Wheat plant response rating of CC(C)N(C(=O)n1oc(=O)n(CC(F)F)c1=O)c1ccccc1 [Compound 746]
## Output 4

## Input Form field: reported Wheat plant response rating of CC(C)N(C(=O)n1oc(=O)n(CC(F)F)c1=O)c1ccc(F)cc1F [Compound 711]
## Output 0

## Input Form field: reported Wheat plant response rating of C=C(Cn1c(=O)on(C(=O)N(c2ccccc2)C(C)C)c1=O)C(C)(C)C [Compound 648]
## Output 0
